Cited source for all entries: paper PMC12136037

molecular target: ~100 representative kinases (Homo sapiens); construct: Recombinant protein kinase domains with a concentration of 2 μM; experiment: DSF 100 kinase selectivity screen; format: binding; details: protein NEK7; average of three replicates;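 note: compound tested at 20 µM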
Assignment: determine reported dTm for the given compounds.
Answer format: numeric, K implied, no suffix.

What does the record list as dTm for `O=C(Nc1cccc(-c2c[nH]c3ncnc(N4CCOCC4)c23)c1)C1(C(=O)Nc2ccc(F)cc2F)CC1` ?
0.03

// returns reported dTm for input `O=C(Nc1cccc(-c2c[nH]c3ncnc(N4CCOCC4)c23)c1)c1cccn(-c2ccc(F)cc2)c1=O`
-0.10

I am curious: what dTm value has been reported for `Cc1cc(F)ccc1NC(=O)C1(C(=O)Nc2cccc(-c3c[nH]c4ncnc(N5CCOCC5)c34)c2)CC1` ?
0.20

Form field: reported dTm of `Cn1cc(-c2c[nH]c3ncnc(N4CCOCC4)c23)cc1C#N`
-0.13

Which dTm value belongs to `Cc1ccc(-n2nc(C(C)(C)C)cc2NC(=O)Nc2cccc(-c3c[nH]c4nc(Cl)nc(N5CCOCC5)c34)c2)cc1` ?
-1.05

Any idea what dTm was measured for `O=C(Nc1cccc(-c2c[nH]c3ncnc(N4CCOCC4)c23)c1)C1(C(=O)Nc2ccc(F)c(Br)c2F)CC1` ?
-0.33

Given the compound Cc1ccc(C(=O)Nc2ccc(CN3CCN(C)CC3)c(C(F)(F)F)c2)cc1C#Cc1cnc2[nH]ncc2c1 [GZD-824, reference compound] , what is its reported dTm?
1.00

// dTm lookup, key: `Cc1cc(NC(=O)C2(C(=O)Nc3ccc(F)cc3)CC2)cc(-c2c[nH]c3ncnc(N4CCOCC4)c23)c1`
0.23

Look up dTm: `C[C@@H]1CN(c2cc(-c3n[nH]c4ccc(OC5(C)CC5)cc34)ncn2)C[C@H](C)O1`
0.03

Tell me the measured dTm of `O=C(Nc1cccc(-c2c[nH]c3ncnc(N4CCOCC4)c23)c1)C1(C(=O)Nc2ccc(F)c(Br)c2)CC1` , please.
-1.14

What value of measured dTm is listed for CNC(=O)c1cc(Oc2ccc(NC(=O)Nc3cc(C(C)(C)C)nn3-c3ccc4ncccc4c3)c(F)c2)ccn1 [Rebastinib, reference compound] ?
3.06

# input compound: `Cc1cc(NC(=O)C2(C(=O)Nc3cccc(-c4c[nH]c5ncnc(N6CCOCC6)c45)c3)CC2)ccc1F` ; wanted: its dTm
0.98

# get_value(readout='dTm', item= Cc1ccc(C(=O)Nc2ccc(CN3CCN(C)CC3)c(C(F)(F)F)c2)cc1C#Cc1cnc2cccnn12 [Ponatinib, reference compound] )
0.07

Reported dTm for `COc1ccc(NC(=O)C2(C(=O)Nc3cccc(-c4c[nH]c5ncnc(N6CCOCC6)c45)c3)CC2)cc1` : what is it?
-0.67

* * *

Molecular target: ~100 representative kinases (Homo sapiens, UniProt O94768)
Construct: Recombinant protein kinase domains with a concentration of 2 μM
Sequence (O94768 1-372): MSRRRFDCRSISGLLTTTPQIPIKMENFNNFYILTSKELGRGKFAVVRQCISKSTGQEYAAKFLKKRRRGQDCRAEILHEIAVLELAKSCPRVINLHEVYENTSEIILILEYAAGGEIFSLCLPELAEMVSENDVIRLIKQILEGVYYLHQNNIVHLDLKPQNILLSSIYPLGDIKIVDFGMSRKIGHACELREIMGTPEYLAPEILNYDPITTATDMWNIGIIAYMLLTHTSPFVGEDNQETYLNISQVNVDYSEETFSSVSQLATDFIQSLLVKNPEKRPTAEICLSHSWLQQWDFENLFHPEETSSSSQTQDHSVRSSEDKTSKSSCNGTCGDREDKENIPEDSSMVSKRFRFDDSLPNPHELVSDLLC
Assay: DSF 100 kinase selectivity screen;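 note: compound tested at 20 µM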
Assay type: binding
Details: Protein STK17B; DSF; average of three replicates
Grouping key: dTm. Bins: lo: < 0.4 K; med: ≥ 0.4 K and < 7 K; hi: ≥ 7 K

Categorize the following entry: `Cc1ccc(-n2nc(C(C)(C)C)cc2NC(=O)Nc2cccc(-c3c[nH]c4nc(Cl)nc(N5CCOCC5)c34)c2)cc1`
lo

Hey, which category is `CCNc1nc(Nc2cc(F)c(C(=O)N3CCOCC3)cc2OC)ncc1C(F)(F)F` in, do you know?
med

Category lookup for the compound `O=C(Nc1cccc(-c2c[nH]c3ncnc(N4CCOCC4)c23)c1)C1(C(=O)Nc2ccc(F)cc2F)CC1`
med

Please report the category associated with `COc1cc(C(=O)N2CCOCC2)c(F)cc1Nc1nc(N(C)C)c2c(Cl)c[nH]c2n1` , nothing else.
hi

Place this compound in its band: `Cc1ccc(C(=O)Nc2ccc(CN3CCN(C)CC3)c(C(F)(F)F)c2)cc1C#Cc1c[nH]c2ncnc(N3CCOCC3)c12`
lo

Please let me know in which category the item COc1cc2c(Oc3ccc(NC(=O)C4(C(=O)Nc5ccc(F)cc5)CC4)cc3F)ccnc2cc1OCCCN1CCOCC1 [Foretinib, reference compound] belongs.
med

The entry to classify is Cc1ccc(C(=O)Nc2ccc(CN3CCN(C)CC3)c(C(F)(F)F)c2)cc1C#Cc1cnc2cccnn12 [Ponatinib, reference compound] ; which class holds it?
lo

Band of `CC(C)(C)c1cccc(NC(=O)C2(C(=O)Nc3cccc(-c4c[nH]c5ncnc(N6CCOCC6)c45)c3)CC2)c1` ?
lo

Hi there! Could you help me figure out the category for `Cc1ccc(-n2nc(C(C)(C)C)cc2NC(=O)Nc2cccc(-c3c[nH]c4ncnc(N5CCOCC5)c34)c2)cc1` please?
med

The entry to classify is `C[C@@H]1CN(c2cc(-c3n[nH]c4ccc(OC5(C)CC5)cc34)ncn2)C[C@H](C)O1` ; which class holds it?
lo

Lab note: sort `O=C(Nc1ccc(Cl)cc1)C1(C(=O)Nc2cccc(-c3c[nH]c4ncnc(N5CCOCC5)c34)c2)CC1` into the matching dTm band.
hi
